Measured Kd accompanies every entry in the list below.
ASSAY_SYSTEM: T1, GFP-9S library array, motif 4 ND N98V;D124A (synthetic construct, N98V;D124A)
T1 chain: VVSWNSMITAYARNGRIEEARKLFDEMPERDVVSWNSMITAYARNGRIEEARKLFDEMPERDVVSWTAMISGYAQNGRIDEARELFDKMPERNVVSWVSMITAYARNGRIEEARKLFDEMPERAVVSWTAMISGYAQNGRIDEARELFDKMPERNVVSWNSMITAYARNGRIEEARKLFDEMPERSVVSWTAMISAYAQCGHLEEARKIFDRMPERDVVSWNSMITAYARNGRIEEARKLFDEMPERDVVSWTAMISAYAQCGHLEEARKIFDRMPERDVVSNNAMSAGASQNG
ASSAY_NAME: high-throughput RNA pulldown from lysate on Ni-NTA beads; HRP: 50 mM Tris pH 8, 150 mM NaCl, 1 mM beta-mercaptoethanol, 50 ug/ml BSA, 3 ug/ml yeast RNA, 0.5% heparin; ITC and FP: Tris pH 8, 200 mM KCl, 5% glycerol; MST: 50 mM Tris pH 8, 200 mM NaCl, 1 mM DTT, BSA, heparin, 0.05% Tween 20
CONDITION_SET: tags: N-terminal His-eGFP; label: 5' IRDye 800CW
QUANTITY: Kd

- BINDER: "AUUAAACGUGA (ssRNA) [IR-rpoA-A]"
  QUANTITY: "Kd"
  RESULT: "80.7 nM"
- BINDER: "AUUAUACGUGA (ssRNA) [IR-rpoA-U]"
  QUANTITY: "Kd"
  RESULT: "71.8 nM"
